Give measured melting point for each item. Keep answers brief.
Output spec: scalar in °C, unitless text.

In: Requested field: melting point. Item: O=C(c1ccccc1)n1c(SC(F)(F)F)cc(-c2ccc(F)cc2)c1-c1ccc(F)cc1
Out: 106

In: Tell me the measured melting point of COc1ccc2cc([C@H](C)C(=O)OCCCN3C(=O)OC[C@H]3C(C)(C)S)ccc2c1 , please.
Out: 118

In: Quick check: melting point of COc1ccc(N2CCN(c3ccc(NC(=O)NN)cc3)CC2)cc1 ?
Out: 300

In: State the recorded melting point for this entry: CCO[C@@H]1C[C@@H](C(=O)NC)N(S(=O)(=O)c2ccc(Cl)c(COc3cccc4c(-n5ccnc5)cc(C)nc34)c2Cl)C1
Out: 80

###

Please go through the items and note down their melting point.

In: Name the recorded melting point for Cc1cc2c(cc1C)C(=O)C(=O)N2 .
Out: 217 to 218 °C

In: Which melting point is reported for this compound? N#Cc1ccccc1Sc1ccccc1N
Out: 86 to 89 °C

In: Fill in the blank: the reported melting point of CC1Sc2c(C(=O)O)c(=O)c3cc(Cl)c(N4CCN(C)CC4)cc3n21 (stereo not given) is ____.
Out: 250 to 255 °C

In: Consider the compound CC(C)(C)CC(C)(C)c1cc(-n2nc3ccc(C(=O)O)cc3n2)c(O)c(C(C)(C)c2ccccc2)c1 and give its measured melting point.
Out: 219 to 221 °C

In: Any idea what melting point was measured for CC(C)C(C)(C#N)N1C(=O)c2cccc(Cl)c2C1=O (stereo not given) ?
Out: 71 to 72 °C

In: Need melting point of CNC(=O)c1ccc(-c2cccc3nc(Nc4cc(OC)c(OC)c(OC)c4)oc23)cc1 , thanks.
Out: 258 to 259 °C

In: Please look up its melting point: O=C(c1ccc(Cl)cc1)C(Cc1ccc(Cl)cc1)c1cccnc1 (stereo not given)
Out: 98 to 99 °C

In: Would you mind telling me what melting point value was observed for O=C(NCc1ccccn1)c1cc(-n2cnn(Cc3ccc(F)cc3)c2=O)n[nH]1 ?
Out: 224 to 225 °C

In: Record request: melting point value, item CS(=O)(=O)c1ccc(C2=C(c3ccccc3)C(=O)N(c3ccc(F)cc3)C2=O)c(F)c1
Out: 198 to 200 °C

In: I have this compound here, CC(=O)Oc1cc(C(C)C)c(OC(C)=O)c(C(C)C)c1 , and I need its recorded melting point.
Out: 73.5 to 75 °C

###

For each record, write down the corresponding melting point.

In: Reported melting point, molecule C=C(C)COc1ccc2c(=O)c(C)c(-c3ccccc3)oc2c1C(=O)C=Cc1ccccc1 : ____
Out: 145 to 147 °C

In: # input molecule: CC(=O)NC1C(NC(=N)N)C=C(C(=O)O)OC1C(OC(=O)NCCCO)C(O)CO (stereo not given) ; wanted: its melting point
Out: 265 to 267 °C

In: Suppose we examine the molecule Cc1ccc(S(=O)(=O)Nc2ccc([C@@H](C)C(N)=O)cc2)cc1 ; what melting point value has been reported?
Out: 138 to 140 °C

In: Look up melting point for this molecule: COc1ccnc(CS(=O)c2nc3cc4c(cc3[nH]2)OC(F)(F)O4)c1 (stereo not given)
Out: 184 to 185 °C

In: Given CCCCc1cn(-c2c(Cl)cccc2Cl)c(=O)n1Cc1ccc(-c2ccccc2-c2nnn[nH]2)nc1 , state its recorded melting point.
Out: 212 °C

In: For CN(CCNC(=O)c1ccccc1)C(=O)c1ccccc1 , what is its reported melting point?
Out: 121 °C

In: Form field: reported melting point of S=c1c2ccc(Cl)cc2nc2n1CCCCC2
Out: 99 to 101 °C

In: Record request: melting point value, item O=C(O)c1cn(Cc2ccc(OCc3csc(-c4ccccc4)n3)cc2)nc1-c1ccccc1
Out: 119 to 120 °C

In: For CC(O)c1nccc(=O)[nH]1 (stereo not given) , what is its reported melting point?
Out: 121 to 124 °C

In: For Cc1c(C(=O)O)cnn1-c1nc(-c2cccc(C(F)(F)F)c2)cs1 , what is its reported melting point?
Out: 227 to 228 °C

In: Any idea what melting point was measured for CC(C)(C)c1cc(C2CC(=O)N(c3ccccc3)C2=O)cc(C(C)(C)C)c1O (stereo not given) ?
Out: 204 °C

In: Quick one: melting point for CCOC(=O)Cn1c(-c2ccc(Br)cc2)nc2cccnc21 ?
Out: 138 to 139 °C

In: Returns the measured melting point for the input molecule. Input: O=C(OCCCc1ccccc1)c1ccc2c(c1)C(Cl)(Cl)c1cc(C(=O)OCCCc3ccccc3)ccc1-2
Out: 91 to 92 °C

In: What measured melting point goes with CC1(C)CCOC1=C(Oc1ccc(Cl)cc1)n1ccnc1 ?
Out: 85 to 88 °C

In: Sample CCCCCOc1nc(N)c2ncn(C3CCCCC3)c2n1 — what was its melting point?
Out: 64 to 68 °C

In: Looking for the measured melting point of CCN1CS(=C2SC(=S)N(Cc3ccccc3)C2=O)c2ccccc21 (stereo not given) , can you help?
Out: 209 to 211 °C

In: Requested field: melting point. Item: CC/C=C/CNc1cccc(-c2ccnc3c(C(=O)c4cccs4)cnn23)c1
Out: 72 to 75 °C

In: Consider the molecule shown here: CC(C)CC(C(=O)Nc1cc(Cl)cc(Cl)c1)N1C(=O)C=CC1=O (stereo not given) What is its recorded melting point?
Out: 150 °C

In: Quick check: melting point of O=[N+]([O-])c1cc2c(Nc3ccc(F)c(Cl)c3)ncnc2cc1O[C@@H]1CCOC1 ?
Out: 244 °C

In: Consider the molecule CCOC(=O)c1cc2c3n(ccc-2n1)CC(c1cccc(OC)c1)=N3 and give its measured melting point.
Out: 198 to 200 °C

Source: a melting point compilation (Tetko et al.; mined from patent text by program, amines drawn as free bases though some values may be those of a salt)
